Tested on: K-562 leukemia
Experiment: NCI-60 one-dose screen, 48 h
Settings: 10 µM unless noted
Description: Cells are grown in 96 well plates and exposed to the test compound for 48 hours. Compounds are tested at a single concentration, which is 10^-5 M for most compounds. The reported endpoint is percent growth (GI% or GIPRCNT), where numbers from 0 - 100% represent growth inhibition, and numbers from -100% - 0 represent cell death. For example, a value of 40 represents 60% growth inhibition. A value of 0 means no net growth occurred over the course of the experiment. […]
About 83,000 compounds went through this panel and 20% of them were active in at least one assay; those are over-represented in the sample as a whole. Activity calls are given as the source filed them. The calls were made as follows: active = growth percent below 10; inactive = the rest.
Your answer must be one of the following: active, inactive

CCCCCCNc1cc(C)nc2ccc(OC)cc12 = inactive

Status in this test for O=C(O)C1C[C@](O)(c2ccc(F)cc2)[C@@H](c2ccc(F)cc2)O1 (stereo partly drawn) ?
inactive

Status in this test for `CC(=O)Nc1ccc(C(=O)/C=C/c2ccccc2)cc1` ?
inactive

Status in this test for `CCN(CC)CCOc1ccc(/C(=C(\C)c2ccc(F)c(OC)c2)c2ccc(Cl)cc2)cc1` ?
active

Status in this test for CC1=NN(c2cccc(Cl)c2)C(=O)/C1=C\c1cn(CC(O)CN2CCCCC2)c2ccccc12 (stereo not drawn) ?
inactive

Status in this test for `CN(C)c1ccc(/C=N/NC(=O)COc2cc(=O)n(C)c3ccccc23)cc1` ?
inactive

Status in this test for `COc1cc2c(cc1OC)-c1ccc3cc4c(cc3c1N(CCCN(C)C)C2)OCO4` ?
inactive

Status in this test for `CCNCCNc1cc(-c2ccc(Cl)cc2)c(C#N)c2nc3ccccc3n12` ?
active

Status in this test for `O=C(NCCOCCOCCOCCNC(=O)c1cc2c(o1)C(=O)c1ccccc1C2=O)NC12CC3CC(CC(C3)C1)C2` ?
active

Status in this test for `Cc1ccc(NSc2ccccc2[N+](=O)[O-])cc1` ?
inactive

Status in this test for `C=C1C(=O)O[C@H]2[C@H]1CC/C(COC(=O)/C=C/C(=O)NCc1ccc(Cn3c(=O)sn(-c4ccccc4)c3=O)cc1)=C\CC[C@@]1(C)O[C@@H]21` ?
active

Status in this test for `COc1ccc(-c2nc3sc4c(c3c(=O)[nH]2)CCCC4)c2ccccc12` ?
active

Status in this test for `Cc1ccc(/C=C(\C#N)n2nnc3cc(Cl)c(Cl)cc32)cc1` ?
active

Status in this test for `O=C(Oc1ccc[nH]c1=O)c1cc([N+](=O)[O-])cc([N+](=O)[O-])c1` ?
inactive

Status in this test for `CN(C)S(=O)(=O)n1cnc([C@@H]2[C@@H]3C(=O)OC[C@@H]3C[C@]23N=CN(Cc2ccccc2)C3=O)c1` ?
inactive

Status in this test for `Cc1ccc(S(=O)(=O)N(CC[C@@H]2C[C@H]2c2cc3ccccc3o2)C(=O)NC2CCCCC2)cc1` ?
inactive

Status in this test for COC1(CC[C@@H](C)COC2OC(CO)C(O)C(O)C2O)O[C@H]2C[C@H]3[C@@H]4CC=C5C[C@@H](OC6OC(CO)C(OC7OC(C)C(O)C(O)C7O)C(O)C6OC6OC(C)C(O)C(O)C6O)CC[C@]5(C)[C@H]4CC[C@]3(C)[C@H]2[C@@H]1C (stereo partly drawn) ?
active

Status in this test for `CN(C)c1ccc(/C=C2\C=C(c3ccccc3)N(CCc3ccccc3)C2=O)cc1` ?
inactive
